Data provenance: PubChem BioAssay

# measurement.target: Homeobox protein Hox-A13 (Mus musculus) (UniProt Q62424)
# Sequence (Q62424 whole entry, looked up): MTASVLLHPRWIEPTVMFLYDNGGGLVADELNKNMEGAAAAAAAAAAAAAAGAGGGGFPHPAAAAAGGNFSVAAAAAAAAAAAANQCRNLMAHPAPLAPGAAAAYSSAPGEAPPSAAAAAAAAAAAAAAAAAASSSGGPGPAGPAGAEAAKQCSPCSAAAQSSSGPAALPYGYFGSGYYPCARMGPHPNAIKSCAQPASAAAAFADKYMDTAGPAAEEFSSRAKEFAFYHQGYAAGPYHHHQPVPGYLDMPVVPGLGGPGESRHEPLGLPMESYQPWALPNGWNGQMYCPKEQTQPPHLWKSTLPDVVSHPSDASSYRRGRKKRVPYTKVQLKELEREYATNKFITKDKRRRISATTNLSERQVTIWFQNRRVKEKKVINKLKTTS
# assay.protocol: inhibitors of HoxA13-DNA binding, primary screen, biochemical, fluorescence polarization, labeled oligonucleotide (AID 1185)
# measurement.setup: 15 min, higher = more signal, called active from +8 up or from −8 down
measured.property: z-score
Numbers only.

- O=C1C2C=CC(C(O)CCc3ccccc3)N(Nc3ccccc3F)C2C(=O)N1c1ccccc1 (stereo not given): -2.76

Quick batch: z-score for everything below.
1. C=C(CCCC)C(=O)CC[C@@H](OC(=O)c1ccccc1-c1ccccc1C(=O)O)c1ccc(OCCO)cc1
2. COCCOC(=O)N1C(=O)[C@@]2(c3cc(C#CCCO)ccc31)[C@H](C(=O)N1CCCCCCC1)[C@H]1C(=O)O[C@H](c3ccccc3)[C@H](c3ccccc3)N1[C@@H]2c1ccc(OCCO)cc1
3. O=C1C[C@@](C(=O)NCCN2CCOCC2)(c2ccc([N+](=O)[O-])cc2)[C@@H](c2ccc(CO)cc2I)N1CC12CC3CC(CC(C3)C1)C2
4. CN1C(=O)C2C=CC(C(O)c3ccco3)N(Nc3ccccc3)C2C1=O (stereo not given)
5. C=CCOC(=O)[C@H]1[C@@H]2C(=O)O[C@@H](c3ccccc3)[C@@H](c3ccccc3)N2[C@@H](c2ccc(OCCOC(=O)[C@@H]3C[C@@H]4C(=O)N[C@@H](CC(C)C)C(=O)N4[C@@H]3c3ccc(O)cc3)cc2)[C@]12C(=O)Nc1ccccc12
6. C=C(/C(=C/C[C@H](OC(C)=O)c1ccccc1OCCO)c1cnc2ccccc2c1)C(C)C
7. CC(C)[Si]1(C(C)C)O[C@@H](c2ccccc2)c2cc(-c3ccc(-c4ccc(Cl)c(Cl)c4)o3)nc(-c3ccccc3)c21

result:
[-5.5, -11, -3.99, -3.54, -0.596, -5.41, -1.68]

----------
# assay.protocol: binders of probe aFGF10 on microarray, primary screen, stem cell growth factor project, biochemical, small-molecule microarray, fluorescence 635/667 (AID 1071);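 also: score merges 667 nm spot intensity and signal to noise from triplicate slides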
# measurement.setup: higher = more signal
Would you mind telling me the reported composite z-score of each entry?
Numbers only.

- COCCOC(=O)N1C(=O)[C@@]2(c3cc(C#CCNC(N)=O)ccc31)[C@H](C(=O)N1CCN(c3ncccn3)CC1)[C@H]1C(=O)O[C@H](c3ccccc3)[C@H](c3ccccc3)N1[C@@H]2c1ccc(OCCO)cc1: 0.719

Quick batch: composite z-score for everything below.
1. O=C1C[C@]2(c3ccc([N+](=O)[O-])cc3)C(=O)N(CC(F)(F)F)c3cc(CO)ccc3[C@H]2N1C1CCCCC1
2. CCOC(=O)C[C@H]1[C@H](OC(=O)c2ccc(C(=O)c3ccccc3)cc2)[C@@H](NC(=O)c2ccccc2)c2cc(OCCCO)ccc2N1C(=O)Cc1ccc(OC)cc1
3. CCOC(=O)C[C@H]1[C@H](OC(=O)c2ccc(C(=O)c3ccccc3)cc2)[C@@H](NC(=O)c2ccc3ccccc3c2)c2cc(OCCCO)ccc2N1C(=O)Cc1ccc(OC)cc1

result:
-0.91
0.153
0.66

----------
# measurement.target: Left-right determination factor 2 (Homo sapiens)
# assay.protocol: LEFTY2 binders on small-molecule microarrays, primary screen, biochemical, small-molecule microarray, 635 nm fluorescence scan (AID 1110)
# measurement.setup: LEFTY2 binding, higher = more signal
measured.property: composite z-score
Give bare numbers.

Below, each entry is followed by its recorded composite z-score result.
* CC(C)NC(=O)[C@@]1(C)c2ccccc2C(=O)N(Cc2cc(C(F)(F)F)cc(C(F)(F)F)c2)[C@H]1c1ccc(CO)cc1 | -0.826
* O=C(c1ccccc1)N1Cc2ccccc2C[C@@]2(COC(c3ccc(OCCCO)cc3)=N2)C1=O | 0.252
* CC(=O)NCCCC[C@@H]1NC(=O)[C@@H]2C[C@H](C(=O)NCCCCCNC(=O)CS)[C@H](c3cccc(OCCO)c3)N2C1=O | 0.837

Quick batch: composite z-score for everything below.
1. C[N+](C)(C)CCCCNC(=O)[C@H]1C[C@H]2C(=O)N3CCC[C@H]3C(=O)N2[C@H]1c1cccc(OCCO)c1
2. COc1cc(NN2C(C(O)c3ccco3)C=CC3C(=O)N(c4ccccc4)C(=O)C32)cc(OC)c1OC (stereo not drawn)
3. CC(C)N1C(=O)C[C@@](C(=O)NCC(F)(F)F)(c2ccc([N+](=O)[O-])cc2)[C@H]1c1ccc(CO)cc1

result:
1. 0.766
2. -0.198
3. -0.383

Quick batch: composite z-score for everything below.
1. COC(=O)[C@H](Cc1ccccc1)N1CC2=C[C@@H](C3CC3)n3c(=O)n(C)c(=O)n3[C@H]2[C@@H]1[C@@H](O)Cc1ccccc1
2. C=C(C)[C@@H]1CC=C(C(O)C2C=CC3C(=O)N(c4ccccc4)C(=O)C3N2Nc2ccccc2)CC1 (stereo partly drawn)

result:
0.41
0.261
